What pIC50 was measured for each of the following?
# target: recombinant CETP (rCETP) (Homo sapiens)
# Sequence (P11597 18-493): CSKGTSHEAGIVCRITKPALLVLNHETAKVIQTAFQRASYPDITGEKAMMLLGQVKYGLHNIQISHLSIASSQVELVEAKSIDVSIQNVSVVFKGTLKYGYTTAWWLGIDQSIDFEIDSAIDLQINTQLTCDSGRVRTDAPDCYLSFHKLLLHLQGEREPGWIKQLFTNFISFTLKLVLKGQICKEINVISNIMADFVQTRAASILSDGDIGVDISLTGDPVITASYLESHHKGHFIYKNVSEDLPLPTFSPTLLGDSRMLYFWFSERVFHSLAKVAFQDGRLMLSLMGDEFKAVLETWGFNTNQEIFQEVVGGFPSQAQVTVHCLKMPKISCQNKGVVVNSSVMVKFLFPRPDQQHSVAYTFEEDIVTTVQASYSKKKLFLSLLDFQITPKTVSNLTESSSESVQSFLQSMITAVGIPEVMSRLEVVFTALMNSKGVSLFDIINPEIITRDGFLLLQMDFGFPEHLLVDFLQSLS
# measurement notes: RTA assay using recombinant CETP (2% RTA)
# Assay type: biochemical
# details: RTA assay in 2% human serum; read-out: IC50
Here pIC50 is given on a logarithmic scale as minus log10 of the concentration in mol/L.

I have this compound here, COc1ccc([C@H]2C[C@@H]2C(=O)O)cc1-c1ccc(N2CC(F)(F)C2)nc1CN1C(=O)O[C@H](c2cc(C(F)(F)F)cc(C(F)(F)F)c2)[C@@H]1C [Example 67] , and I need its recorded pIC50.
7.85

Another compound to check: COC(=O)CC(C)(C)c1ccc(OC)c(-c2ccc(N3CCC3)nc2CN2C(=O)O[C@H](c3cccc(C)c3)[C@@H]2C)c1 [Example 203]
6.97

Input COC(=O)c1scc(-c2ccc(OC)c(-c3cc(Br)c(N4CCC4)nc3CN3C(=O)O[C@H](c4cc(C(F)(F)F)cc(C(F)(F)F)c4)[C@@H]3C)c2)c1C [Example 50]
7.82

Then what about the compound CCOC(=O)CC1CCc2cc(OC)c(-c3ccc(N4CCC4)nc3CN3C(=O)O[C@H](c4cc(C(F)(F)F)cc(C(F)(F)F)c4)[C@@H]3C)cc21 (stereo partly drawn) [Example 6] ?
8.15

And what about the compound COc1ccc([C@H]2CC[C@H](C(=O)OC)CC2)cc1-c1ccc(N2CCC2)nc1CN1C(=O)O[C@H](c2cc(F)cc(F)c2)[C@@H]1C [Example 19] ?
6.42

Also COc1ccc(-c2ccc(C(=O)O)cc2C)cc1-c1cnc(N2CC(F)(F)C2)nc1CN1C(=O)O[C@H](c2cc(C(F)(F)F)cc(C(F)(F)F)c2)[C@@H]1C [Example 160] , if possible.
8.05
